# assay_details: chemical genetic growth profiling, strain panel (AID 1159580);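 also: tested at 20 µM; growth read once vehicle control cultures reached saturation at 30 °C; lower values mean less growth of the strain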
# recorded_conditions: S. cerevisiae deletion strains, growth OD, locus YBR171W, strain sec66
The whole screen tested about 5,500 compounds, of which about 2,000 (36%) were called active. Another 18% or so got no clear call; they are omitted. Rule as the data show it: active = normalized growth mostly below about 0.91 (no sharp cut-off); inconclusive = no clear call, values can overlap the other calls; inactive = mostly above about 0.92. The list shows a part of the results.
Classes used: active, inactive

INSERT INTO results (compound, label_class) VALUES
  ('CC(C(=O)O)[C@H]1CCC2C3CC=C4C[C@@H](O)CC[C@]4(C)C3CC[C@@]21C (some centres not stated)', 'inactive'),
  ('CN(C)CCC=C1c2ccccc2C=Cc2ccccc21', 'inactive'),
  ('COc1c2c(cc3c1OCO3)CC[N+](C)=C2', 'inactive'),
  ('S=c1ccss1', 'inactive'),
  ('O=c1cc(-c2cccc(O)c2)oc2ccc(O)cc12', 'inactive'),
  ('NCCc1ccc(O)cc1', 'inactive'),
  ('C=C1C(N)CC2CC1C2(C)C (configuration not stated)', 'inactive'),
  ('CC(C)(O)[C@@H]1CC[C@](C)([C@H]2[C@@H](O)C[C@@]3(C)C4C[C@H](O[C@@H]5O[C@H](CO)[C@@H](O)[C@H](O)[C@H]5O)C5C(C)(C)[C@@H](O[C@@H]6OC[C@@H](O)[C@H](O)[C@H]6O)CC[C@@]56C[C@@]46CC[C@]23C)O1 (some centres not stated)', 'inactive'),
  ('CCCCCCCCCc1ccc(O)cc1', 'active'),
  ('COc1cccc(-c2cc(=O)c3ccc(OC)cc3o2)c1', 'inactive'),
  ('Nc1nnc(-c2cccc(Cl)c2Cl)c(N)n1', 'inactive'),
  ('[N-]=[N+]=CC(=O)OCC(N)C(=O)O (configuration not stated)', 'inactive'),
  ('CC1=NCCc2c1[nH]c1cc(O)ccc21', 'inactive'),
  ('NCCc1ccc(O)c(O)c1', 'inactive'),
  ('C[n+]1cc2c3c(ccc2c2ccc4cc5c(cc4c21)OCO5)OCO3', 'inactive'),
  ('C=CCCCCCCCCCCCC(O)CC(O)CO (configuration not stated)', 'inactive'),
  ('CN(C)CCC=C1c2ccccc2CCc2ccccc21', 'inactive'),
  ('COc1ccc2cc3[n+](cc2c1OC)CCc1cc2c(cc1-3)OCO2', 'inactive'),
  ('COc1c(O)cc2c(-c3ccccc3)cc(=O)oc2c1OC', 'inactive'),
  ('COc1cc2cc[n+]3cc4c(OC)c(OC)ccc4cc3c2cc1OC', 'inactive'),
  ('Nc1nc(N)c2nc(-c3ccccc3)c(N)nc2n1', 'inactive'),
  ('CC(=O)O[C@H]1C[C@H](O[C@H]2[C@@H](O)C[C@H](O[C@H]3[C@@H](O)C[C@H](O[C@H]4CC[C@@]5(C)C(CCC6C5C[C@@H](O)[C@]5(C)[C@@H](C7=CC(=O)OC7)CC[C@]65O)C4)O[C@@H]3C)O[C@@H]2C)O[C@H](C)[C@H]1O[C@@H]1O[C@H](CO)[C@@H](O)[C@H](O)[C@H]1O (some centres not stated)', 'inactive');

Each recorded value in this set is attributed to PubChem BioAssay AID1159580.
